assay_target: HIV-2 reverse transcriptase (Human immunodeficiency virus 2)
run_description: Compound was evaluated for inhibition of HIV-2 reverse transcriptase using rC.dG and [3H]-dGTP as substrates at 100 ug/mL
pIC50: −log10 of the molar value.
measured_endpoint: pIC50

{"structure_as_smiles": "O=C(CCCCCCC(=O)Nc1ccc(Br)cc1C(=O)O)Nc1ccc(Br)cc1C(=O)O", "number": 5.13}
